Where do the numbers come from? From patent US20180282430A1.

Would you kindly list Ratio pH 7.0/pH 6.0 for each of these binders?
- target: T1, Human TFPI (tissue factor pathway inhibitor) (human, UniProt P10646 29-304, limits assumed)
- T1 construct: Coated at 1 ug/ml on Maxisorb plates for the ELISA; For the Biacore work the human TFPI came from American Diagnostica
- T1 sequence (looked up): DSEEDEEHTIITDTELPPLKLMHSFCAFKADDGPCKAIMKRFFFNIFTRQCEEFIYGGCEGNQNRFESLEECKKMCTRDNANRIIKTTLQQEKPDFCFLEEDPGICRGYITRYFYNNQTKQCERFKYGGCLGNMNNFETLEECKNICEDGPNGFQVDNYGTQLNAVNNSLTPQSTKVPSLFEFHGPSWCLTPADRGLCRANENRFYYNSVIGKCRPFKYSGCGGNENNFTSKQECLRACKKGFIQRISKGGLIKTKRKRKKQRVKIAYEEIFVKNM
- measurement.description: pH 6.0 TFPI dissociation ELISA; ratio of the signals at pH 7.0 and pH 6.0
// no unit, no text: just the number

Prompt: Quick check: Ratio pH 7.0/pH 6.0 of 2A8-g200 Fab VL-W90H (Fab, V domains shown, Member of the 2A8-g200 Fab histidine scanning library) VH: EVQLVESGGGLVQPGGSLRLSCAASGFTFSSYGMDWVRQAPGKGLEWVSSIRGSRGSTYYADSVKGRFTISRDNSKNTLYLQMNSLRAEDTAVYYCARLYRYWFDYWGQGTLVTVSS VL: SYELTQPPSVSVSPGQTARITCSGDNLPKYYAHWYQQKPGQAPVVVIFYDVNRPSGIPERFSGSNSGNTATLTISGTQAMDEADYYCQAHWSSTPVFGGGTKLTVLG ?
Response: 1.21

Prompt: Which Ratio pH 7.0/pH 6.0 is listed for 2A8-g200 Fab VL-V45H (Fab, V domains shown, Member of the 2A8-g200 Fab histidine scanning library) VH: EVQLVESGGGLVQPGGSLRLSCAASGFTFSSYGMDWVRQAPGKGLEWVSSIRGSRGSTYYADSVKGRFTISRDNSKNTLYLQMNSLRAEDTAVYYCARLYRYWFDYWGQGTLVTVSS VL: SYELTQPPSVSVSPGQTARITCSGDNLPKYYAHWYQQKPGQAPVHVIFYDVNRPSGIPERFSGSNSGNTATLTISGTQAMDEADYYCQAWWSSTPVFGGGTKLTVLG ?
Response: 1.24

Prompt: # lookup: Ratio pH 7.0/pH 6.0 of 2A8-g200 Fab VL-Y31H (Fab, V domains shown, Member of the 2A8-g200 Fab histidine scanning library) VH: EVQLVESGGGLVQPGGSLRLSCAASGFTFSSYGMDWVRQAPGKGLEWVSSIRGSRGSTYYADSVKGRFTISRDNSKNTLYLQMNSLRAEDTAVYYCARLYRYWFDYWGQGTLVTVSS VL: SYELTQPPSVSVSPGQTARITCSGDNLPKYHAHWYQQKPGQAPVVVIFYDVNRPSGIPERFSGSNSGNTATLTISGTQAMDEADYYCQAWWSSTPVFGGGTKLTVLG
Response: 6.84

Prompt: Item under review: 2A8-g200 Fab (wild type) (Fab, V domains shown, Fab format, expressed in E. coli; also called wt gA200Fab; wild type 2A8-g200 Fab) VH: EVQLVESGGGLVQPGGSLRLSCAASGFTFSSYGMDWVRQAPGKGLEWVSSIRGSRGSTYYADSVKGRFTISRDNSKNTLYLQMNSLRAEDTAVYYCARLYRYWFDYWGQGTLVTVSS VL: SYELTQPPSVSVSPGQTARITCSGDNLPKYYAHWYQQKPGQAPVVVIFYDVNRPSGIPERFSGSNSGNTATLTISGTQAMDEADYYCQAWWSSTPVFGGGTKLTVLG . Reported Ratio pH 7.0/pH 6.0?
Response: 0.98

Prompt: Entry 2A8-g200 Fab VL-L27H (Fab, V domains shown, Member of the 2A8-g200 Fab histidine scanning library) VH: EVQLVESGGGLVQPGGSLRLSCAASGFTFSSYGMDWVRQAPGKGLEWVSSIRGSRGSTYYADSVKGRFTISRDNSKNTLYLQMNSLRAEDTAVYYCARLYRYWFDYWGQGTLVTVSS VL: SYELTQPPSVSVSPGQTARITCSGDNHPKYYAHWYQQKPGQAPVVVIFYDVNRPSGIPERFSGSNSGNTATLTISGTQAMDEADYYCQAWWSSTPVFGGGTKLTVLG : reported Ratio pH 7.0/pH 6.0 = ?
Response: 1.3

Prompt: Please report the recorded Ratio pH 7.0/pH 6.0 for 2A8-g200 Fab VH-Y100H (Fab, V domains shown, Member of the 2A8-g200 Fab histidine scanning library) VH: EVQLVESGGGLVQPGGSLRLSCAASGFTFSSYGMDWVRQAPGKGLEWVSSIRGSRGSTYYADSVKGRFTISRDNSKNTLYLQMNSLRAEDTAVYYCARLHRYWFDYWGQGTLVTVSS VL: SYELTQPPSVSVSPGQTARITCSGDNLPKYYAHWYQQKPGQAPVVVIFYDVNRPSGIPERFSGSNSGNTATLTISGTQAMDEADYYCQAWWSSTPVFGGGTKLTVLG .
Response: 1.78

Prompt: Give its Ratio pH 7.0/pH 6.0 value. Item: 2A8-g200 Fab VL-Y49H (Fab, V domains shown, Member of the 2A8-g200 Fab histidine scanning library) VH: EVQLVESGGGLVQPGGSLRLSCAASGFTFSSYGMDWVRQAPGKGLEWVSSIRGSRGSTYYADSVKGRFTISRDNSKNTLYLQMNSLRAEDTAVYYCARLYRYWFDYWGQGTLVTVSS VL: SYELTQPPSVSVSPGQTARITCSGDNLPKYYAHWYQQKPGQAPVVVIFHDVNRPSGIPERFSGSNSGNTATLTISGTQAMDEADYYCQAWWSSTPVFGGGTKLTVLG
Response: 1.3

Prompt: Which Ratio pH 7.0/pH 6.0 is listed for 2A8-g200 Fab VL-F48H (Fab, V domains shown, Member of the 2A8-g200 Fab histidine scanning library) VH: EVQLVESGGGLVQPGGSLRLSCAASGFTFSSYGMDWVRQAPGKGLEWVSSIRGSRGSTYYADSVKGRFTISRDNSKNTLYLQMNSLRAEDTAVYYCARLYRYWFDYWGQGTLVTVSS VL: SYELTQPPSVSVSPGQTARITCSGDNLPKYYAHWYQQKPGQAPVVVIHYDVNRPSGIPERFSGSNSGNTATLTISGTQAMDEADYYCQAWWSSTPVFGGGTKLTVLG ?
Response: 1.33

Prompt: Could you tell me which Ratio pH 7.0/pH 6.0 is on file for 2A8-g200 Fab VH-Y102H (Fab, V domains shown, Member of the 2A8-g200 Fab histidine scanning library) VH: EVQLVESGGGLVQPGGSLRLSCAASGFTFSSYGMDWVRQAPGKGLEWVSSIRGSRGSTYYADSVKGRFTISRDNSKNTLYLQMNSLRAEDTAVYYCARLYRHWFDYWGQGTLVTVSS VL: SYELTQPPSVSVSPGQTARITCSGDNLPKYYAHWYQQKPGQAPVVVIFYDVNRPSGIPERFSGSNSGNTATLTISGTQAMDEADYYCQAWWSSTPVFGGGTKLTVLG ?
Response: 3.07
